Record form. Attribute: composite z-score. Fill in for each entry.
testDescription: small molecules captured by biotinylated probe aFSTL3 – biochemical, small-molecule microarray, fluorescence 635/667, stem cell growth factor project, primary screen (AID 1064);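 also: measures binding of the biotinylated anti-FSTL3 antibody to printed compounds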
appliedConditions: higher = more signal
Answers are plain numbers.

COc1ccc([Si](C)(C)[C@H]2[C@H](CC(=O)N3Cc4ccccc4C[C@H]3CO)O[C@@]3(C(=O)N(C)c4c(Br)cc(C)cc43)[C@@H]2C)cc1 ... -0.0669
CCCCC(O)C1C=CC2C(=O)N(c3ccccc3)C(=O)C2N1Nc1ccc([N+](=O)[O-])cc1 (stereo not given) ... 0.108
C=CCC(OC(C)=O)[C@@H]1[C@@H](N(Cc2ccc(-c3cccc(C(F)(F)F)c3)o2)C(=O)c2ccc(-c3ccccc3)cc2)c2cc(OCCCO)ccc2N1C(=O)c1ccc2ccccc2c1 (stereo not given in full) ... -0.071
COC(=O)C1(Cc2ccccc2)C=C2C(=C(C)C(=O)C2C)CN1 (stereo not given) ... 0.601
COC(=O)C[C@H]1O[C@@]2(C[C@@H]1[Si](C)(C)C)C(=O)N(C)c1ccccc12 ... -0.469
COC(=O)C(CC#Cc1ccc2c(c1)[C@]1(C(=O)N2)[C@H](c2ccc(OCCO)cc2)N2[C@H](c3ccccc3)[C@H](c3ccccc3)OC(=O)[C@H]2[C@@H]1C(=O)N1CCCCCCC1)C(=O)OC ... 3.41
O=C(NC1CC1)[C@@H]1c2ccccc2C(=O)N(CC23CC4CC(CC(C4)C2)C3)[C@H]1c1ccc(CO)cc1 ... -0.314
NC(=O)NCC#Cc1ccc2c(c1)[C@]1(C(=O)N2)[C@H](c2ccc(OCCO)cc2)N2[C@H](c3ccccc3)[C@H](c3ccccc3)OC(=O)[C@H]2[C@@H]1C(=O)NC[C@H](O)c1ccccc1 ... -0.142

For every item in the list below, what is its measured composite z-score?
1. Cc1ccc(S[C@]2(C(=O)NCC(F)(F)F)CC(=O)N(Cc3ccccc3C(F)(F)F)[C@@H]2c2ccc(CO)cc2)cc1
2. CC(C)C(=C=CC[C@H](O)c1ccccc1OCCO)C[C@H](O)COCc1ccccc1
3. COc1ccc(C(O)C2C=CC3C(=O)N(c4ccccc4)C(=O)C3N2Nc2ccc([N+](=O)[O-])cc2)c2ccccc12 (stereo not given)
4. CCOC(=O)C1=CC[C@@H](c2ccc(OC)cc2)N(S(=O)(=O)c2ccc(C)cc2)[C@H]1CC
5. CC(C)N1C(=O)C[C@@](C(=O)NCCN2CCOCC2)(c2ccc([N+](=O)[O-])cc2)[C@H]1c1ccc(CO)cc1
6. CN(C)CCCNC(=O)[C@@H]1c2ccccc2C(=O)N(Cc2ccccc2C(F)(F)F)[C@H]1c1ccc(CO)cc1

1: 0.953; 2: -0.322; 3: 0.138; 4: -0.295; 5: 0.489; 6: 1

For every item in the list below, what is its measured composite z-score?
1. O=C(N1CCOCC1)[C@@]1(Cc2ccccc2)COC(c2ccc(OCCCO)cc2)=N1
2. O=C(NCCN1CCOCC1)[C@@H]1c2ccccc2C(=O)N(Cc2ccc(OC(F)(F)F)cc2)[C@H]1c1ccc(CO)cc1
3. NCCCCCCNC(=O)[C@@H]1C[C@@H]2C(=O)N3CCC[C@H]3C(=O)N2[C@@H]1c1cccc(OCCO)c1
4. O=C(O)[C@H](Cc1ccccc1)n1cc(C2(O)CCCCC2)nn1
5. CC=CC(O)C1C=CC2C(=O)NC(=O)C2N1Nc1ccc(Cl)cc1Cl (stereo not given)

1. 1.06
2. 0.224
3. 1.14
4. -0.44
5. 0.389
